System: antibodies in sera from SARS patients (sera 1a, 1b, 2, 6, 37, 62, London, SARS-yellow, SARS-green)
Format: binding, human
Attribute: Binding of serum SARS-green to looped/cyclic peptides of protein E of SARS-CoV Urbani
Quantity: Binding of serum SARS-green to looped/cyclic peptides of protein E of SARS-CoV Urbani

VSEETGTLIVNSVLL | 0.6
LAFVVFLLVTLAILT | 0.5
LVTLAILTALRLCAY | 0.6
SEETGTLIVNSVLLF | 0.4
LAILTALRLCAYCCN | 0.5
LRLCAYCCNIVNVSL | 0.6

###

System: rabbit serum obtained by immunizing a rabbit with the SARS-CoV strain Frankfurt 1
Type: binding
Set-up: unit not given here
Quantity: Binding of a rabbit serum to looped peptides

LVTLAILTALRLCAY | 0.3
VFLLVTLAILTALRL | 0.3
LFLAFVVFLLVTLAI | 0.3

###

Tested on: antibodies in sera from SARS patients (sera 1a, 1b, 2, 6, 37, 62, London, SARS-yellow, SARS-green)
Format: binding, human
Quantity: Binding of serum 6 to linear peptides of protein E of SARS-CoV Urbani

YSFVSEETGTLIVNS | 0.5
LTALRLCAYCCNIVN | 0.7
LAILTALRLCAYCCN | 0.5
IVNSVLLFLAFVVFL | 0.7
SEETGTLIVNSVLLF | 0.7
ILTALRLCAYCCNIV | 0.8
